Biological target: isolated recombinant JAK1 kinase domain (Homo sapiens, UniProt P23458)
Construct: isolated recombinant JAK1 and JAK2 kinase domain
Sequence (P23458 875-1153 limits assumed): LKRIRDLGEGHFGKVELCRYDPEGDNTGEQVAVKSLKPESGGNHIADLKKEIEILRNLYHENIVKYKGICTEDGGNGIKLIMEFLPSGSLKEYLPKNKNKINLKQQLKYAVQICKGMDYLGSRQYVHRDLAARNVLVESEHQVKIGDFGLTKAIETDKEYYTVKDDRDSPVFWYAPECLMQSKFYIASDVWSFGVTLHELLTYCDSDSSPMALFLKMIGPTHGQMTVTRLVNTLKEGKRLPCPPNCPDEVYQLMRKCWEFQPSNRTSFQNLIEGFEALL
Assay: JAK enzyme assay, JAK1 kinase domain (Caliper LabChip)
Details: 1.5 nM JAK1, ATP 25 μM, Morrison tight binding model
pKi: −log10 of the molar value.
Classify by measured pKi: rule met if it is equal to or exceeds 9, rule not met if it is smaller.

INSERT INTO results (compound, qualitative_label) VALUES
  ('N#CCC1(n2cc(OC(F)F)cn2)CN(c2cccn3nc(Nc4cnn(CC(F)F)c4)nc23)C1 [Example 150]', 'rule met'),
  ('CN1CCN(C(=O)Cn2cc(Nc3nc4c(N5CC(CC#N)(n6cc(CCO)cn6)C5)cccn4n3)cn2)CC1 [Example 25]', 'rule met'),
  ('Cc1ccccc1-c1cnn(C2(CC#N)CN(c3cccn4nc(Nc5cnn(CC(=O)N6CCC(N(C)C7COC7)CC6)c5)nc34)C2)c1 [Example 124]', 'rule not met'),
  ('CN1CCN(C(=O)Cn2cc(Nc3nc4c(N5CC(CC#N)(Cc6ccccc6Cl)C5)cccn4n3)cn2)CC1 [Example 126]', 'rule met'),
  ('CCc1cnn(C2(CC#N)CN(c3cccn4nc(Nc5ccc(C(=O)N6CC7(CCN(C8COC8)CC7)C6)cc5)nc34)C2)c1 [Example 86]', 'rule met'),
  ('CCc1cnn(C2(CC#N)CN(c3cccn4nc(Nc5ccc(C(=O)N6CCN(C)CC6)c(C)c5)nc34)C2)c1 [Example 92]', 'rule met'),
  ('CSc1cc(C2(CC#N)CN(c3cccn4nc(Nc5cnn(CC(=O)N6CCN(C)CC6)c5)nc34)C2)ccc1F [Example 79]', 'rule met'),
  ('CN(CC1(C#N)CC1)C1CCN(C(=O)Cn2cc(Nc3nc4c(N5CC(CC#N)(n6cc(C(F)(F)F)cn6)C5)cccn4n3)cn2)CC1 [Example 109]', 'rule met'),
  ('CC(C)c1cnn(C2(CC#N)CN(c3cccn4nc(Nc5cnn(CC(=O)N6CCN(C)CC6)c5)nc34)C2)c1 [Example 56]', 'rule not met'),
  ('CCc1cnn(C2(CC#N)CN(c3cccn4nc(Nc5ccc6c(c5)CCN(C5CCOCC5)C6)nc34)C2)c1 [Example 57]', 'rule met');

* * *

Molecular target: isolated recombinant JAK1 kinase domain (Homo sapiens, UniProt P23458)
Construct: isolated recombinant JAK1 and JAK2 kinase domain
Experiment: JAK enzyme assay, JAK1 kinase domain (Caliper LabChip)
Assay type: biochemical
Conditions: 1.5 nM JAK1, ATP 25 μM, Morrison tight binding model
Listing of entries alongside the reported Ki.
test.readout: Ki (nM)

INSERT INTO assay_data (smiles_notation, system_tested, test_readout, value_observed) VALUES
  ('Cc1ccccc1-c1cnn(C2(CC#N)CN(c3cccn4nc(Nc5cnn(CC(=O)N6CCN(C)CC6)c5)nc34)C2)c1', 'isolated recombinant JAK1 kinase domain (Homo sapiens, UniProt P23458)', 'Ki', 0.2),
  ('CN1CCN(C(=O)Cn2cc(Nc3nc4c(N5CC(CC#N)(c6cccc(Cl)c6)C5)cccn4n3)cn2)CC1', 'isolated recombinant JAK1 kinase domain (Homo sapiens, UniProt P23458)', 'Ki', 0.8),
  ('Cc1cc(C2(CC#N)CN(c3cccn4nc(Nc5cnn(CC(=O)N6CCN(C)CC6)c5)nc34)C2)ccc1Cl', 'isolated recombinant JAK1 kinase domain (Homo sapiens, UniProt P23458)', 'Ki', 0.5),
  ('CCc1cnn(C2(CC#N)CN(c3cccn4nc(Nc5ccc(CC(=O)N6CCN(C)CC6)nc5)nc34)C2)c1', 'isolated recombinant JAK1 kinase domain (Homo sapiens, UniProt P23458)', 'Ki', 0.4),
  ('CN1CCN(C(=O)Cn2cc(Nc3nc4c(N5CC(CC#N)(n6cc(CO)cn6)C5)cccn4n3)cn2)CC1', 'isolated recombinant JAK1 kinase domain (Homo sapiens, UniProt P23458)', 'Ki', 1.2),
  ('CN1CCN(C(=O)Cn2cc(Nc3nc4c(N5CC(CC#N)(n6cc(C7CCCC7)cn6)C5)cccn4n3)cn2)CC1', 'isolated recombinant JAK1 kinase domain (Homo sapiens, UniProt P23458)', 'Ki', 0.6),
  ('N#CCC1(n2cc(C(F)(F)F)cn2)CN(c2cccn3nc(Nc4cnn(CC(=O)N5CCC(N6CCOCC6)CC5)c4)nc23)C1', 'isolated recombinant JAK1 kinase domain (Homo sapiens, UniProt P23458)', 'Ki', 0.3),
  ('CN1CCN(C(=O)Cn2cc(Nc3nc4c(N5CC(CC#N)(Cc6ccccc6)C5)cccn4n3)cn2)CC1', 'isolated recombinant JAK1 kinase domain (Homo sapiens, UniProt P23458)', 'Ki', 0.4),
  ('N#CCC1(n2cc(C(F)(F)F)cn2)CN(c2cccn3nc(Nc4cn[nH]c4)nc23)C1', 'isolated recombinant JAK1 kinase domain (Homo sapiens, UniProt P23458)', 'Ki', 0.2),
  ('COCCN1CCN(C(=O)Cn2cc(Nc3nc4c(N5CC(CC#N)(n6cc(C(F)(F)F)cn6)C5)cccn4n3)cn2)CC1', 'isolated recombinant JAK1 kinase domain (Homo sapiens, UniProt P23458)', 'Ki', 0.3),
  ('CC(C)c1cnn(C2(CC#N)CN(c3cccn4nc(Nc5cn[nH]c5)nc34)C2)c1', 'isolated recombinant JAK1 kinase domain (Homo sapiens, UniProt P23458)', 'Ki', 0.1),
  ('CN1CCN(C(=O)Cn2cc(Nc3nc4c(N5CC(CC#N)(n6cc(C7CC7)cn6)C5)cccn4n3)cn2)CC1', 'isolated recombinant JAK1 kinase domain (Homo sapiens, UniProt P23458)', 'Ki', 0.6),
  ('CCCc1cnn(C2(CC#N)CN(c3cccn4nc(Nc5cnn(CC(=O)N6CCN(C)CC6)c5)nc34)C2)c1', 'isolated recombinant JAK1 kinase domain (Homo sapiens, UniProt P23458)', 'Ki', 1),
  ('N#CCC1(n2cc(OC(F)F)cn2)CN(c2cccn3nc(Nc4cn[nH]c4)nc23)C1', 'isolated recombinant JAK1 kinase domain (Homo sapiens, UniProt P23458)', 'Ki', 0.2),
  ('CCc1cnn(C2(CC#N)CN(c3cccn4nc(Nc5ccc(C(=O)N6CCN(C)CC6)c(OC)c5)nc34)C2)c1', 'isolated recombinant JAK1 kinase domain (Homo sapiens, UniProt P23458)', 'Ki', 0.5);

* * *

Target: isolated recombinant JAK1 kinase domain (Homo sapiens)
Construct: isolated recombinant JAK1 and JAK2 kinase domain
Assay: JAK enzyme assay, JAK1 kinase domain (Caliper LabChip)
Conditions: 1.5 nM JAK1, ATP 25 μM, Morrison tight binding model
pKi: −log10 of the molar value.
test.readout: pKi

INSERT INTO measurements (smiles_notation, system_tested, value_observed) VALUES
  ('CN1CCN(C(=O)Cn2cc(Nc3nc4c(N5CC(CC#N)(N6CCC(F)(F)CC6)C5)cccn4n3)cn2)CC1', 'isolated recombinant JAK1 kinase domain (Homo sapiens)', 9.05),
  ('COc1ccc(CCC2(CC#N)CN(c3cccn4nc(Nc5cnn(CC(=O)N6CCN(C)CC6)c5)nc34)C2)cc1', 'isolated recombinant JAK1 kinase domain (Homo sapiens)', 9.40),
  ('CN1CCN(C(=O)c2ccc(Nc3nc4c(N5CC(CC#N)(n6cc(C7CCOCC7)cn6)C5)cccn4n3)cc2)CC1', 'isolated recombinant JAK1 kinase domain (Homo sapiens)', 9.40),
  ('CCc1cnn(C2(CC#N)CN(c3cccn4nc(Nc5cnn(CC(=O)N6CCC(CN7CCN(C(=O)OC)CC7)CC6)c5)nc34)C2)c1', 'isolated recombinant JAK1 kinase domain (Homo sapiens)', 9.52);

* * *

Target: isolated recombinant JAK2 kinase domain (Homo sapiens, UniProt O60674)
Construct: isolated recombinant JAK1 and JAK2 kinase domain
Sequence (O60674 849-1124 limits assumed): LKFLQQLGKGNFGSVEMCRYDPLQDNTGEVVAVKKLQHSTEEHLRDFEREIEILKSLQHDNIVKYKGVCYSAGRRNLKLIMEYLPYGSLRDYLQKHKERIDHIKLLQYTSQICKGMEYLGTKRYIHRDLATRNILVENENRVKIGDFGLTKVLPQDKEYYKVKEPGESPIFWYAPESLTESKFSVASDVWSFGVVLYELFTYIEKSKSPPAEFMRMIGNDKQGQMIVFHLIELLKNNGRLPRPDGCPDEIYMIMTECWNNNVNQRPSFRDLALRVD
Assay: JAK enzyme assay, JAK2 kinase domain (Caliper LabChip)
Details: 0.2 nM JAK2, ATP 25 μM, Morrison tight binding model
Ki values by entry
test.readout: Ki (nM)

INSERT INTO results (smiles_notation, value_observed) VALUES
  ('CC(C)Sc1cnn(C2(CC#N)CN(c3cccn4nc(Nc5cnn(CC(=O)N6CCN(C)CC6)c5)nc34)C2)c1', 1.6),
  ('N#CCC1(n2cc(C(F)(F)F)cn2)CN(c2cccn3nc(Nc4cnn(CC(=O)N5CCN(C6CCOCC6)CC5)c4)nc23)C1', 0.8),
  ('CCc1ccc(C2(CC#N)CN(c3cccn4nc(Nc5cnn(CC(=O)N6CCN(C)CC6)c5)nc34)C2)cc1', 2.9),
  ('N#CCC1(c2cccc(Cl)c2)CN(c2cccn3nc(Nc4cnn(CC(=O)N5CCN(CCN6CCOCC6)CC5)c4)nc23)C1', 0.2),
  ('CC(C)c1cnn(C2(CC#N)CN(c3cccn4nc(Nc5cn[nH]c5)nc34)C2)c1', 0.1),
  ('CCc1cnn(C2(CC#N)CN(c3cccn4nc(Nc5ccc(C(=O)N6CC7(CCN(C)CC7)C6)cc5)nc34)C2)c1', 9.3),
  ('CCc1cnn(C2(CC#N)CN(c3cccn4nc(Nc5cnn(CC(=O)N6CCC(NCC(C)(F)F)CC6)c5)nc34)C2)c1', 2.7);
